- system_under_test: Alpha-2A adrenergic receptor (Homo sapiens, UniProt P08913); further: in other assays of this panel Not Active means under 50% inhibition at 10 µM
- Sequence (P08913 whole entry): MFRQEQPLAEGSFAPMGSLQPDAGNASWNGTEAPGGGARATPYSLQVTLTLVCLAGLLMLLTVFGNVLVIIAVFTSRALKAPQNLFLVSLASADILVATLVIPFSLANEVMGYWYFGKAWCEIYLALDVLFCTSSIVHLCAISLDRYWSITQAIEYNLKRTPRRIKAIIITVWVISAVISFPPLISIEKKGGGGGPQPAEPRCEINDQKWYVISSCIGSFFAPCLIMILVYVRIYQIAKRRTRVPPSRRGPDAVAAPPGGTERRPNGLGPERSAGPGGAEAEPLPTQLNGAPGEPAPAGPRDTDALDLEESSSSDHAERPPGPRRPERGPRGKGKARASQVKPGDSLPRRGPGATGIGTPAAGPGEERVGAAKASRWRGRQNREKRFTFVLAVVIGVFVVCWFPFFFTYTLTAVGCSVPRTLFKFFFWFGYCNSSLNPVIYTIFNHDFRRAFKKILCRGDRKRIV
- Assay type: cell membranes, Sf9, Membrane
- protocol_conditions: read-out: Ki
The label is True for Ki below 600 nM and False for Ki equal to or exceeding 600 nM.

// query # strict comparison: is reported Ki < 600 nM? input = CO[C@@H]1[C@@H](OC)[C@H](C)[C@@](O)(CC(=O)O)O[C@H]1[C@H](C)[C@H]1O[C@@]2(CC[C@@](C)([C@H]3CC[C@@](C)([C@@H]4O[C@@H]([C@H]5O[C@](C)(O)[C@H](C)C[C@@H]5C)C[C@@H]4O[C@@H]4C[C@H](OC)[C@@H](OC)[C@H](C)O4)O3)O2)C[C@H](O)[C@H]1C [MADURAMICIN ACID]
// result True

// query In plain terms, does CCN(CC)CCNC(=O)c1cc(S(C)(=O)=O)ccc1OC [TIAPRIDE] come in under 600 nM for Ki?
// result False

// query Please indicate whether the reported Ki of CN(C/C=C/C#CC(C)(C)C)Cc1cccc2ccccc12 [TERBINAFINE] is strictly below 600 nM.
// result False

// query Is Ki of C[C@@H](CO)NC(=O)[C@@H]1C=C2c3cccc4[nH]cc(c34)C[C@H]2N(C)C1 [ERGONOVINE] strictly below 600 nM?
// result False

// query Does Oc1c(Cl)cc(Cl)c(Cl)c1Cc1c(O)c(Cl)cc(Cl)c1Cl [HEXACHLOROPHENE] have Ki strictly under 600 nM?
// result False

// query # TODO verify Ki < 600 nM strictly for this compound: Fc1ccc(C(c2ccc(F)cc2)N2CCN(C/C=C/c3ccccc3)CC2)cc1 [FLUNARIZINE]
// result True

---

- system_under_test: 5-hydroxytryptamine receptor 1B (Rattus norvegicus); further: in other assays of this panel Not Active means under 50% inhibition at 10 µM
- Sequence (P28564 whole entry): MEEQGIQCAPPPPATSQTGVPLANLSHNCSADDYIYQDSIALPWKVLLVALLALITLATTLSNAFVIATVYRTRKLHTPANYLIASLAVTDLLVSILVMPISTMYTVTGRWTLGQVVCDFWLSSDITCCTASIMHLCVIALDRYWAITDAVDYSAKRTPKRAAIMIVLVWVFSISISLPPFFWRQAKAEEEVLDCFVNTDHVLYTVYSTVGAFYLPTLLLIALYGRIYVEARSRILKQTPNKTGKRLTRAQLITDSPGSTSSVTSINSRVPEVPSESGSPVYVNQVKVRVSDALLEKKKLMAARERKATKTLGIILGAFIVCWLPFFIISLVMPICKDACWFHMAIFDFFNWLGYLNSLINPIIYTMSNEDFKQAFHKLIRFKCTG
- Assay type: cell membranes, Wistar, Cerebral cortex, Membrane
attribute_measured: IC50

Example entries begin here.
// query Sample CC(=O)Oc1ccc(C(c2ccc(OC(C)=O)cc2)c2ccccn2)cc1 [BISACODYL] — what was its IC50?
// result Not Active

// query Reported IC50, compound COC1=C(OC)C(=O)C(CCCCCCCCCCO)=C(C)C1=O [IDEBENONE] : ____
// result Not Active

// query I'd like to know its IC50. The compound in question is CCCOc1ccc(C(=O)OCCN(CC)CC)cc1N [PROPARACAINE]
// result Not Active

// query Return reported IC50; argument: O=C(O)CCNC(=O)c1ccccc1 [BETAMIPRON]
// result Not Active

Others:
// query Which IC50 reading was recorded for the compound COc1ccc2cc3[n+](cc2c1OC)CCc1cc2c(cc1-3)OCO2.[Cl-] [BERBERINE CHLORIDE] ?
// result Not Active

// query What does the record list as IC50 for CC(C(=O)O)c1ccc2oc(-c3ccc(Cl)cc3)nc2c1 (centres undefined) [BENOXAPROFEN] ?
// result Not Active

// query Sample CN[C@H]1CC[C@@H](c2ccc(Cl)c(Cl)c2)c2ccccc21 [SERTRALINE] — what was its IC50?
// result Not Active

// query Sample O=C(O)c1cn(-c2ccc(F)cc2)c2cc(N3CCNCC3)c(F)cc2c1=O [SARAFLOXACIN] — what was its IC50?
// result Not Active

// query What value of measured IC50 is listed for O=C1O[C@H]([C@@H](O)CO)C(O)=C1O [ASCORBIC ACID] ?
// result Not Active

---

- assay: DRUGMATRIX: Calcium Channel Type L, Phenylalkylamine radioligand binding (ligand: [3H] (-)-Desmethoxyverapamil (D-888))
- Assay type: cell membranes, Rattus norvegicus, Wistar, Brain, Membrane
- protocol_conditions: Not Active = under 50% inhibition at 10 µM; read-out: Ki
attribute_measured: log10 Ki (log10 of the value in nM)
Log scale reminder: Ki in nM, then log10 taken.

// query Look at this compound and give its reported log10 Ki. CN(C)CC[C@@H](c1ccc(Cl)cc1)c1ccccn1
// result 3.57

// query Quick one: log10 Ki for COc1ccc(CCN(C)CCCC(C#N)(c2ccc(OC)c(OC)c2)C(C)C)cc1OC (stereo unspecified) ?
// result 1.65

// query GET /values?readout=log10 Ki&item= OC(CCCN1CCCCC1)(c1ccccc1)c1ccccc1
// result 3.64

// query Quick check: log10 Ki of CCCNCC(O)COc1ccccc1C(=O)CCc1ccccc1 (stereo unspecified) ?
// result 3.23

// query Sample COc1cc(N)c(Cl)cc1C(=O)NC1CCN(CCCOc2ccc(F)cc2)CC1OC (stereo unspecified) [CISAPRIDE] — what was its log10 Ki?
// result 2.71

// query # log10 Ki lookup, item Cc1cc2c(OCC(CNC(C)(C)C)OC(=O)c3ccccc3)cccc2[nH]1 (stereo unspecified)
// result 3.45

---

- system_under_test: Endothelin-1 receptor (Homo sapiens); further: in other assays of this panel Not Active means under 50% inhibition at 10 µM
- Sequence (P25101 whole entry): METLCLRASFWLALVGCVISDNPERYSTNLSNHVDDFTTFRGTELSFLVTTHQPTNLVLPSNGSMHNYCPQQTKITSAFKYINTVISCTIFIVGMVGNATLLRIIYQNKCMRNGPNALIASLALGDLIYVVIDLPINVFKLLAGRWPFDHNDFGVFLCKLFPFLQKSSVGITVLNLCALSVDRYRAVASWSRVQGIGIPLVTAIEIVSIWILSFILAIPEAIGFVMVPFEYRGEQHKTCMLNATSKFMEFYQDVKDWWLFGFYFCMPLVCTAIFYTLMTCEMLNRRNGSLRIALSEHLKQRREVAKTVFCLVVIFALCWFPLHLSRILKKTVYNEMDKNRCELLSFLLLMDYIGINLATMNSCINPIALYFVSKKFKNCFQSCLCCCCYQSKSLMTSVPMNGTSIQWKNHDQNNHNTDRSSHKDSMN
- Type: cell membranes, Membrane
- protocol_conditions: cho-k1; read-out: Ki
attribute_measured: pKi
The read-out pKi is expressed as -log10 of concentration in moles per litre.

// query Quick one: pKi for GRAMICIDIN ?
// result 5.74

---

- assay: DRUGMATRIX: Calcium Channel Type L, Phenylalkylamine radioligand binding (ligand: [3H] (-)-Desmethoxyverapamil (D-888))
- Format: cell membranes, Rattus norvegicus, Wistar, Brain, Membrane
- protocol_conditions: Not Active = under 50% inhibition at 10 µM
attribute_measured: IC50

// query IC50 value for entry C[C@H]1O[C@@H](n2cc(F)c(=O)[nH]c2=O)[C@H](O)[C@@H]1O [DOXIFLURIDINE]
// result Not Active

// query Query (compound): CC[C@@H](C(=O)[C@@H](C)[C@@H](O)[C@H](C)[C@@H]1O[C@@H]([C@@H](CC)C(=O)O)CC[C@@H]1C)[C@H]1O[C@]2(C=C[C@@H](O)[C@]3(CC[C@@](C)([C@H]4CC[C@](O)(CC)[C@H](C)O4)O3)O2)[C@H](C)C[C@@H]1C [SALINOMYCIN] ; field requested: IC50
// result Not Active

// query Fill in the blank: the reported IC50 of C[n+]1ccc(-c2cc[n+](C)cc2)cc1.[Cl-].[Cl-] [PARAQUAT DICHLORIDE] is ____.
// result Not Active

---

Record form. Attribute: log10 Ki. Fill in for each entry.
- system_under_test: Alpha-1B adrenergic receptor (Rattus norvegicus, UniProt P15823)
- Sequence (P15823 whole entry): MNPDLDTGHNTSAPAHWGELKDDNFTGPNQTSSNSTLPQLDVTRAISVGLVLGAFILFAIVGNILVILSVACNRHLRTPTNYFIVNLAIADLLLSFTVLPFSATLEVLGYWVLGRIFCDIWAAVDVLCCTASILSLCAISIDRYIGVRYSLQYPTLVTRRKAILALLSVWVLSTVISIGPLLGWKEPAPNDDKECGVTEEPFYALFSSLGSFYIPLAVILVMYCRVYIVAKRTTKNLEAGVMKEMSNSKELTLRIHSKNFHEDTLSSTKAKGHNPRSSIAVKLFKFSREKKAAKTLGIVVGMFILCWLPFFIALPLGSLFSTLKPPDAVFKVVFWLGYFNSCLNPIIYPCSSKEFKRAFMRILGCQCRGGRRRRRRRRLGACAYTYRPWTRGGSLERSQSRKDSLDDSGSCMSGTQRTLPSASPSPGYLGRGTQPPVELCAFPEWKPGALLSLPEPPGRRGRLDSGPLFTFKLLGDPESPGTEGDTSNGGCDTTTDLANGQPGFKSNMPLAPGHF
- assay: DRUGMATRIX: Alpha-1B adrenergic receptor radioligand binding (ligand: prazosin)
- Assay type: cell membranes, Wistar, Liver, Membrane
- protocol_conditions: Not Active = under 50% inhibition at 10 µM; read-out: Ki
Reminder: these figures are log10 of reported Ki, in nM before transformation.

// query Which measured log10 Ki value corresponds to COc1cc2nc(N3CCN(C(=O)C4CCCO4)CC3)nc(N)c2cc1OC (stereo not given) ?
// result 0.52

// query # input compound: COc1cc(N)c(Cl)cc1C(=O)NC1CCN(CCCOc2ccc(F)cc2)CC1OC (stereo not given) [CISAPRIDE] ; wanted: its log10 Ki
// result 0.94

// query Could you share which log10 Ki value was measured for CN(C)CC[C@@H](c1ccc(Cl)cc1)c1ccccn1 ?
// result 3.94

// query Fill blank: measured log10 Ki of the compound OC(CCCN1CCCCC1)(c1ccccc1)c1ccccc1 is ____.
// result 3.42

// query May I ask what log10 Ki has been recorded for CC[C@H]1CN2CCc3cc(OC)c(OC)cc3[C@@H]2C[C@@H]1C[C@H]1NCCc2cc(OC)c(OC)cc21 ?
// result 3.03

---

- system_under_test: D(1A) dopamine receptor (Homo sapiens, UniProt P21728)
- Sequence (P21728 whole entry): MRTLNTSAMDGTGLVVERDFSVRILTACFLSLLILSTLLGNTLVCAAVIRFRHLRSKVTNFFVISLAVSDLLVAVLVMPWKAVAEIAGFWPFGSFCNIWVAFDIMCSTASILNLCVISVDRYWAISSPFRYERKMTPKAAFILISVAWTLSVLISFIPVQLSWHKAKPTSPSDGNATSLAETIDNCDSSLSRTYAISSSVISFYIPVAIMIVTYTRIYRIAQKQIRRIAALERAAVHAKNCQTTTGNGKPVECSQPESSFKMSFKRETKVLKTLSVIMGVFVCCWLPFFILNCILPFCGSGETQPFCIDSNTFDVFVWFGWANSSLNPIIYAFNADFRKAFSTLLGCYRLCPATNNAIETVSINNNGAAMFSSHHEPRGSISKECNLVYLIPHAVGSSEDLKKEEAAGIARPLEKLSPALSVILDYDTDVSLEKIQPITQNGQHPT
- assay: DRUGMATRIX: Dopamine D1 radioligand binding (ligand: [3H] SCH-23390)
- Assay type: cell membranes, CHO, Membrane
- protocol_conditions: cho; Not Active = under 50% inhibition at 10 µM
attribute_measured: IC50

// query IC50 for CCN(CC)CC(=O)Nc1c(C)cccc1C [LIDOCAINE] ?
// result Not Active

// query What value of IC50 has been recorded for this entry: CC(=O)O[C@H]1C(=O)[C@@]2(C)[C@H]([C@H](OC(=O)c3ccccc3)[C@]3(O)C[C@H](OC(=O)[C@H](O)[C@@H](NC(=O)c4ccccc4)c4ccccc4)C(C)=C1C3(C)C)[C@]1(OC(C)=O)CO[C@@H]1C[C@@H]2O [PACLITAXEL]
// result Not Active

// query Entry under review: O=C(Nc1ccc(Br)cc1)c1cc(Br)cc(Br)c1O [TRIBROMSALAN] . Reported IC50?
// result Not Active
